Reference for the values: paper PMC6001238

System: S. aureus VRSA
ASSAY DETAILS: MIC, broth microdilution, vancomycin-resistant S. aureus (VRSA)
Assay type: cell-based, Staphylococcus aureus
EXPERIMENTAL CONDITIONS: VRSA; ratio of MIC of vancomycin and MIC of analogue
Description: The minimum inhibitory concentration (MIC) was determined using the broth microdilution method according to the antimicrobial susceptibility testing standards of the clinical and laboratory standards institute ([Clinical and Laboratory Standards Institute [CLSI], 2012]). Ultrapure water and non-inoculated broth were used as controls. In one case, a final concentration of 10 μM vancomycin was included with the vancomycin analog or control antibiotic.
ASSAY READOUT: MIC-fold improvement vs. vancomycin
Lab note: record just the number, no unit beside it.

Some compounds with known MIC-fold improvement vs. vancomycin results, for comparison:
CCCCCCc1ccc(NC(=O)CNC(=O)[C@H]2NC(=O)[C@H]3NC(=O)[C@H](NC(=O)[C@@H]4NC(=O)[C@H](CC(N)=O)NC(=O)[C@H](NC(=O)[C@@H](CC(C)C)NC)[C@H](O)c5ccc(c(Cl)c5)Oc5cc4cc(c5O[C@@H]4O[C@H](CO)[C@@H](O)[C@H](O)[C@H]4O[C@H]4C[C@](C)(N)[C@H](O)[C@H](C)O4)Oc4ccc(cc4Cl)[C@H]3O)c3ccc(O)c(c3)-c3c(O)cc(O)cc32)cc1: 64
CN[C@H](CC(C)C)C(=O)N[C@H]1C(=O)N[C@@H](CC(N)=O)C(=O)N[C@H]2C(=O)N[C@H]3C(=O)N[C@H](C(=O)N[C@H](C(=O)NCC(=O)Nc4ccccc4)c4cc(O)cc(O)c4-c4cc3ccc4O)[C@H](O)c3ccc(c(Cl)c3)Oc3cc2cc(c3O[C@@H]2O[C@H](CO)[C@@H](O)[C@H](O)[C@H]2O[C@H]2C[C@](C)(N)[C@H](O)[C@H](C)O2)Oc2ccc(cc2Cl)[C@H]1O: 4
C#CCCC(=O)NCCCNC(=O)C1NC(=O)C2NC(=O)C(NC(=O)C3NC(=O)C(CC(N)=O)NC(=O)C(NC(=O)C(CC(C)C)NC)C(O)c4ccc(c(Cl)c4)Oc4cc3cc(c4OC3OC(CO)C(O)C(O)C3OC3CC(C)(N)C(O)C(C)O3)Oc3ccc(cc3Cl)C2O)c2ccc(O)c(c2)-c2c(O)cc(O)cc21 (centres unmarked): 8
CCCC#Cc1ccc(NC(=O)CNC(=O)C2NC(=O)C3NC(=O)C(NC(=O)C4NC(=O)C(CC(N)=O)NC(=O)C(NC(=O)C(CC(C)C)NC)C(O)c5ccc(c(Cl)c5)Oc5cc4cc(c5OC4OC(CO)C(O)C(O)C4OC4CC(C)(N)C(O)C(C)O4)Oc4ccc(cc4Cl)C3O)c3ccc(O)c(c3)-c3c(O)cc(O)cc32)cc1 (centres unmarked): 64
CNC(CC(C)C)C(=O)NC1C(=O)NC(CC(N)=O)C(=O)NC2C(=O)NC3C(=O)NC(C(=O)NC(C(=O)NCC(=O)Nc4ccc(O)cc4)c4cc(O)cc(O)c4-c4cc3ccc4O)C(O)c3ccc(c(Cl)c3)Oc3cc2cc(c3OC2OC(CO)C(O)C(O)C2OC2CC(C)(N)C(O)C(C)O2)Oc2ccc(cc2Cl)C1O (centres unmarked): 4
CN[C@H](CC(C)C)C(=O)N[C@H]1C(=O)N[C@@H](CC(N)=O)C(=O)N[C@H]2C(=O)N[C@H]3C(=O)N[C@H](C(=O)N[C@H](C(=O)NCC(=O)Nc4cccc(F)c4)c4cc(O)cc(O)c4-c4cc3ccc4O)[C@H](O)c3ccc(c(Cl)c3)Oc3cc2cc(c3O[C@@H]2O[C@H](CO)[C@@H](O)[C@H](O)[C@H]2O[C@H]2C[C@](C)(N)[C@H](O)[C@H](C)O2)Oc2ccc(cc2Cl)[C@H]1O: 8
CN[C@H](CC(C)C)C(=O)N[C@H]1C(=O)N[C@@H](CC(N)=O)C(=O)N[C@H]2C(=O)N[C@H]3C(=O)N[C@H](C(=O)N[C@H](C(=O)NCCNC(=O)/C=C/c4ccc(C)cc4)c4cc(O)cc(O)c4-c4cc3ccc4O)[C@H](O)c3ccc(c(Cl)c3)Oc3cc2cc(c3O[C@@H]2O[C@H](CO)[C@@H](O)[C@H](O)[C@H]2O[C@H]2C[C@](C)(N)[C@H](O)[C@H](C)O2)Oc2ccc(cc2Cl)[C@H]1O: 256
CNC(CC(C)C)C(=O)NC1C(=O)NC(CC(N)=O)C(=O)NC2C(=O)NC3C(=O)NC(C(=O)NC(C(=O)NCC(=O)Nc4ccc(C(=O)NCCCN(C)C)cc4)c4cc(O)cc(O)c4-c4cc3ccc4O)C(O)c3ccc(c(Cl)c3)Oc3cc2cc(c3OC2OC(CO)C(O)C(O)C2OC2CC(C)(N)C(O)C(C)O2)Oc2ccc(cc2Cl)C1O (centres unmarked): 32

Summary line: CNC(CC(C)C)C(=O)NC1C(=O)NC(CC(N)=O)C(=O)NC2C(=O)NC3C(=O)NC(C(=O)NC(C(=O)NCCCNC(=O)c4cc5ccccc5o4)c4cc(O)cc(O)c4-c4cc3ccc4O)C(O)c3ccc(c(Cl)c3)Oc3cc2cc(c3OC2OC(CO)C(O)C(O)C2OC2CC(C)(N)C(O)C(C)O2)Oc2ccc(cc2Cl)C1O (centres unmarked) , S. aureus VRSA, reported MIC-fold improvement vs. vancomycin = 32

Summary line: CNC(CC(C)C)C(=O)NC1C(=O)NC(CC(N)=O)C(=O)NC2C(=O)NC3C(=O)NC(C(=O)NC(C(=O)NCCCNC(=O)c4nc5ccccc5[nH]4)c4cc(O)cc(O)c4-c4cc3ccc4O)C(O)c3ccc(c(Cl)c3)Oc3cc2cc(c3OC2OC(CO)C(O)C(O)C2OC2CC(C)(N)C(O)C(C)O2)Oc2ccc(cc2Cl)C1O (centres unmarked) , S. aureus VRSA, reported MIC-fold improvement vs. vancomycin = 64

Summary line: "CN[C@H](CC(C)C)C(=O)N[C@H]1C(=O)N[C@@H](CC(N)=O)C(=O)N[C@H]2C(=O)N[C@H]3C(=O)N[C@H](C(=O)N[C@H](C(=O)NCC(=O)Nc4ccc(C)cc4Cl)c4cc(O)cc(O)c4-c4cc3ccc4O)[C@H](O)c3ccc(c(Cl)c3)Oc3cc2cc(c3O[C@@H]2O[C@H](CO)[C@@H](O)[C@H](O)[C@H]2O[C@H]2C[C@](C)(N)[C@H](O)[C@H](C)O2)Oc2ccc(cc2Cl)[C@H]1O" , S. aureus VRSA, reported MIC-fold improvement vs. vancomycin = 8

###

System: MRSA KS2
ASSAY DETAILS: MIC, broth microdilution, MRSA KS2
Format: cell-based, Staphylococcus aureus
EXPERIMENTAL CONDITIONS: Staphylococcus aureus MRSA KS2; read-out: MIC
# MIC per entry
Kindly provide the numeric value in µM only, without the unit symbol.

Some compounds with known MIC results, for comparison:
CNC(CC(C)C)C(=O)NC1C(=O)NC(CC(N)=O)C(=O)NC2C(=O)NC3C(=O)NC(C(=O)NC(C(=O)NCC(=O)Nc4ccc(-c5cn(-c6ccc(OC)cc6)nn5)cc4)c4cc(O)cc(O)c4-c4cc3ccc4O)C(O)c3ccc(c(Cl)c3)Oc3cc2cc(c3OC2OC(CO)C(O)C(O)C2OC2CC(C)(N)C(O)C(C)O2)Oc2ccc(cc2Cl)C1O (centres unmarked): 0.20
CN[C@H](CC(C)C)C(=O)N[C@H]1C(=O)N[C@@H](CC(N)=O)C(=O)N[C@H]2C(=O)N[C@H]3C(=O)N[C@H](C(=O)N[C@H](C(=O)NCCCNC(=O)c4ccc5ccccc5c4)c4cc(O)cc(O)c4-c4cc3ccc4O)[C@H](O)c3ccc(c(Cl)c3)Oc3cc2cc(c3O[C@@H]2O[C@H](CO)[C@@H](O)[C@H](O)[C@H]2O[C@H]2C[C@](C)(N)[C@H](O)[C@H](C)O2)Oc2ccc(cc2Cl)[C@H]1O: 0.20
CN[C@H](CC(C)C)C(=O)N[C@H]1C(=O)N[C@@H](CC(N)=O)C(=O)N[C@H]2C(=O)N[C@H]3C(=O)N[C@H](C(=O)N[C@H](C(=O)NCC(=O)Nc4cccc5ccccc45)c4cc(O)cc(O)c4-c4cc3ccc4O)[C@H](O)c3ccc(c(Cl)c3)Oc3cc2cc(c3O[C@@H]2O[C@H](CO)[C@@H](O)[C@H](O)[C@H]2O[C@H]2C[C@](C)(N)[C@H](O)[C@H](C)O2)Oc2ccc(cc2Cl)[C@H]1O: 0.39

// sample CNC(CC(C)C)C(=O)NC1C(=O)NC(CC(N)=O)C(=O)NC2C(=O)NC3C(=O)NC(C(=O)NC(C(=O)NCCCNC(=O)c4ccc5ccccc5n4)c4cc(O)cc(O)c4-c4cc3ccc4O)C(O)c3ccc(c(Cl)c3)Oc3cc2cc(c3OC2OC(CO)C(O)C(O)C2OC2CC(C)(N)C(O)C(C)O2)Oc2ccc(cc2Cl)C1O (centres unmarked) , its MIC was 0.39

// sample "CN[C@H](CC(C)C)C(=O)N[C@H]1C(=O)N[C@@H](CC(N)=O)C(=O)N[C@H]2C(=O)N[C@H]3C(=O)N[C@H](C(=O)N[C@H](C(=O)NCC(=O)Nc4ccc(C#Cc5ccccc5)cc4)c4cc(O)cc(O)c4-c4cc3ccc4O)[C@H](O)c3ccc(c(Cl)c3)Oc3cc2cc(c3O[C@@H]2O[C@H](CO)[C@@H](O)[C@H](O)[C@H]2O[C@H]2C[C@](C)(N)[C@H](O)[C@H](C)O2)Oc2ccc(cc2Cl)[C@H]1O" , its MIC was 0.20

// sample CNC(CC(C)C)C(=O)NC1C(=O)NC(CC(N)=O)C(=O)NC2C(=O)NC3C(=O)NC(C(=O)NC(C(=O)NCCCNC(=O)c4ccc5cc(O)ccc5c4)c4cc(O)cc(O)c4-c4cc3ccc4O)C(O)c3ccc(c(Cl)c3)Oc3cc2cc(c3OC2OC(CO)C(O)C(O)C2OC2CC(C)(N)C(O)C(C)O2)Oc2ccc(cc2Cl)C1O (centres unmarked) , its MIC was 0.39

// sample CCc1cccc(C)c1NC(=O)CNC(=O)C1NC(=O)C2NC(=O)C(NC(=O)C3NC(=O)C(CC(N)=O)NC(=O)C(NC(=O)C(CC(C)C)NC)C(O)c4ccc(c(Cl)c4)Oc4cc3cc(c4OC3OC(CO)C(O)C(O)C3OC3CC(C)(N)C(O)C(C)O3)Oc3ccc(cc3Cl)C2O)c2ccc(O)c(c2)-c2c(O)cc(O)cc21 (centres unmarked) , its MIC was 0.78

// sample "CN[C@H](CC(C)C)C(=O)N[C@H]1C(=O)N[C@@H](CC(N)=O)C(=O)N[C@H]2C(=O)N[C@H]3C(=O)N[C@H](C(=O)N[C@H](C(=O)NCCNC(=O)/C=C/c4ccc(NS(=O)(=O)c5ccccc5)cc4)c4cc(O)cc(O)c4-c4cc3ccc4O)[C@H](O)c3ccc(c(Cl)c3)Oc3cc2cc(c3O[C@@H]2O[C@H](CO)[C@@H](O)[C@H](O)[C@H]2O[C@H]2C[C@](C)(N)[C@H](O)[C@H](C)O2)Oc2ccc(cc2Cl)[C@H]1O" , its MIC was 0.39
